Test system: Fibroblast
Experiment: Multiplex assay against human fibroblast
Type: toxicity, cell-based
Conditions: 48 h, 1 µM, compound concentration 1 uM, replicate 1
ENDPOINT NAME: Population Tubulin-Different-Phenotype (%)

INSERT INTO measurements (compound, result) VALUES
  ('Cc1cc(C)cc(-c2cnc3cc(Cl)c(-c4cccc(O)c4)cc3c2OCCCN)c1', '56%'),
  ('Cc1nc(-c2ccc(-c3ccc(C(=O)N4CCc5cc6c(cc54)C4(CCN(C)CC4)CO6)cc3)c(C)c2)no1 [SB-224289]', '50%'),
  ('COc1cccc([C@@H](C)NCCCc2ccccc2Cl)c1.Cl [TECALCET HYDROCHLORIDE]', '42%'),
  ('CN1CCC[C@@H]1CCO[C@](C)(c1ccccc1)c1ccc(Cl)cc1.O=C(O)/C=C/C(=O)O [CLEMASTINE FUMARATE]', '42%'),
  ('CN1CCN(CCOc2cc(OC3CCOCC3)c3c(Nc4c(Cl)ccc5c4OCO5)ncnc3c2)CC1 [SARACATINIB]', '31%'),
  ('CN(C)C(=O)N[C@H]1CC[C@H](CCN2CCN(c3cccc(Cl)c3Cl)CC2)CC1.Cl [CARIPRAZINE HYDROCHLORIDE]', '56%'),
  ('C=CC(=O)Nc1cccc(C(=O)Nc2ccc(Nc3cc(-c4[nH]c(SC)nc4C)ccn3)cc2)c1', '25%');
